Numbers sourced from ChEMBL document CHEMBL1131456.

Test system: Rattus norvegicus
method summary: In vivo activity in anesthetized rat was measured as heart rate which provides information on in vivo bradycardic activity
Format: functional
property measured: ED75 (µM/kg)
Write the number in µM/kg without appending the unit.

Would you please look over these solved cases?
INSERT INTO measurements (smiles_code, property_measured, value_measured) VALUES
  ('CCCCC1(CCCC)C2CN(CC3CCCCC3)CC1CN(C(C)C)C2', 'ED75', 9.3),
  ('C=CCCN1CC2CN(CCC=C)CC(C1)C2(C)C', 'ED75', 7.1);

Report measured ED75; entry is "CCCC1(CCC)C2CN(C(C)C)CC1CN(C(C)C)C2" 6.4

Report measured ED75; entry is "CCCCCCN1CC2CN(C)CC(C1)C2(CC)CC" 25

Report measured ED75; entry is "CCCCCCN1CC2CC(CN(C)C2)C1" 46

Report measured ED75; entry is "C=CCCN1CC2CN(CC(C)C)CC(C1)C2(CCC)CCC" 3.5

Report measured ED75; entry is "CC(C)N1CC2CN(C(C)C)CC(C1)C2(C)C" 52

Report measured ED75; entry is "C=CCCN1CC2CN(CCCC)CC(C1)C2(C)C" 5.9

Report measured ED75; entry is "C=CCCN1CC2CN(CCC=C)CC(C1)C21CCCCC1" 4.9
